Field: Ki. Provide a value for each of the molecules that follow.
# testSystem: BCL-W (Homo sapiens)
# Sequence (Q92843 whole entry): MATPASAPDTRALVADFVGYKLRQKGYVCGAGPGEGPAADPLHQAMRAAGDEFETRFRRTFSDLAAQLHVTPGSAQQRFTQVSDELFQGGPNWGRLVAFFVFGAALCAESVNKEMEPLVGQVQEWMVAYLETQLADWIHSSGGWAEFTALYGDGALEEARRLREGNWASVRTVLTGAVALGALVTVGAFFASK
# assay: Time-resolved FRET binding assay
# particulars: read-out: TR-FRET, Ki, nM BCL-W

[
  {
    "molecule": "COc1ccccc1-c1nccc(COc2ccccc2CC(Oc2ncnc3sc(-c4ccc(F)cc4)c(-c4ccc(OCCN5CCN(C)CC5)c(Cl)c4C)c23)C(=O)O)n1 (centres unmarked) [Compound 1, reference compound]",
    "testSystem": "BCL-W (Homo sapiens)",
    "reportedProperty": "Ki",
    "reading": "> 468 nM"
  }
]

Then this molecule:
Noted for Cc1c(Cl)c2c(Cl)c(C)c1-c1c(-c3ccc(F)cc3)sc3ncnc(c13)O[C@@H](C(=O)O)Cc1cc(ccc1OCc1ccnc(-c3ccc(OC[C@H]4COCCO4)cc3)n1)OC[C@@H](CN1CCN(C)CC1)O2 [ABBV-467] : its Ki reads > 247 nM
